Each recorded value in this set is attributed to the supplement of paper PMC7877785.

Recorded measurements of self-splicing fitness (ln), one per entry
method description: self-splicing fitness, log relative to wild type (ln ratio); higher = more splicing; Tetrahymena group I intron in knt gene, E. coli kanamycin selection, DiMSum; sequences stand for … in CUCUCU…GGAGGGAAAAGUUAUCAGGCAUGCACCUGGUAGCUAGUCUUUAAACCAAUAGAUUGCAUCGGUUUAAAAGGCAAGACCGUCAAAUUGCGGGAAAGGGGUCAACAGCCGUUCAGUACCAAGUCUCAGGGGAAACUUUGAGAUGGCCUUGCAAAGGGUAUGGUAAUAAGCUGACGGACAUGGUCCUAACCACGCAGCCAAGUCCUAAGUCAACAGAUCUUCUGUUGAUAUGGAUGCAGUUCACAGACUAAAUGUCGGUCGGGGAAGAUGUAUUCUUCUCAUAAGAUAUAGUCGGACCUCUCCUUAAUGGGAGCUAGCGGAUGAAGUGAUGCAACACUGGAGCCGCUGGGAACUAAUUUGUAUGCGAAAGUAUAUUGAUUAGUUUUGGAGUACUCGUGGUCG;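 note: selection with 25 µg/mL kanamycin versus none on LB agar overnight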
particulars: 30 °C
test readout: self-splicing fitness (ln)

>>> recorded_measurement("CGCAAGCAAUAUUACGUUCA")
-1.33
>>> recorded_measurement("UUUGAGCAAUAUUACGUAAA")
-1.16
>>> recorded_measurement("AUCUAGCAAUAUUACGUUAU")
-1.79
>>> recorded_measurement("AUAUAGCAAUAUUACGGAGG")
-3.24
>>> recorded_measurement("GUUCAGCAAUAUUACGGGCC")
-3.61
>>> recorded_measurement("UAUGAGCAAUAUUACGCUAG")
-3.34
>>> recorded_measurement("CUAUAGCAAUAUUACGACUA")
-1.87
>>> recorded_measurement("GGGUAGCAAUAUUACGCCAA")
-0.499
>>> recorded_measurement("CGGCAGCAAUAUUACGUCUA")
-0.607
>>> recorded_measurement("CUCUAGCAAUAUUACGGGAG")
-3.78
>>> recorded_measurement("AUAUAGCAAUAUUACGGUCC")
-2.8
>>> recorded_measurement("AAUCAGCAAUAUUACGUUAU")
-0.401
>>> recorded_measurement("CAGCAGCAAUAUUACGUCGA")
-1.73
>>> recorded_measurement("AGAUAGCAAUAUUACGCGCU")
-2.31
>>> recorded_measurement("UAAGAGCAAUAUUACGUCAA")
-3.41
>>> recorded_measurement("GCCAAGCAAUAUUACGUCUG")
-3.62
>>> recorded_measurement("ACGUAGCAAUAUUACGACCA")
-0.97
>>> recorded_measurement("CAGAAGCAAUAUUACGUUCG")
-0.642
>>> recorded_measurement("CAGCAGCAAUAUUACGCUAC")
-3.65
>>> recorded_measurement("UCGCAGCAAUAUUACGCUUU")
-3.69
>>> recorded_measurement("AGCUAGCAAUAUUACGGUUU")
-2.66
>>> recorded_measurement("ACUCAGCAAUAUUACGUUUA")
-1.54
>>> recorded_measurement("UGGCAGCAAUAUUACGCCCU")
-0.69
>>> recorded_measurement("CCAUAGCAAUAUUACGAGUA")
-3.41
>>> recorded_measurement("CCUCAGCAAUAUUACGUGCU")
-3.84
>>> recorded_measurement("AUUGAGCAAUAUUACGCGGG")
-3.34
>>> recorded_measurement("GCUAAGCAAUAUUACGUGGC")
-2.87
>>> recorded_measurement("AGUUAGCAAUAUUACGCAUA")
-1.15
>>> recorded_measurement("CUUUAGCAAUAUUACGCCCA")
-2.92
>>> recorded_measurement("GUUCAGCAAUAUUACGCCGU")
-1.57
>>> recorded_measurement("AUAGAGCAAUAUUACGCAUC")
-3.91
>>> recorded_measurement("UUAAAGCAAUAUUACGGAUG")
-0.473
>>> recorded_measurement("GCAAAGCAAUAUUACGAAAC")
-1.75
>>> recorded_measurement("UAUCAGCAAUAUUACGUGGG")
-1.97

---

method description: self-splicing fitness, log relative to wild type (ln ratio); higher = more splicing; Tetrahymena group I intron in knt gene, E. coli kanamycin selection, DiMSum; sequences stand for … in CUCUCU…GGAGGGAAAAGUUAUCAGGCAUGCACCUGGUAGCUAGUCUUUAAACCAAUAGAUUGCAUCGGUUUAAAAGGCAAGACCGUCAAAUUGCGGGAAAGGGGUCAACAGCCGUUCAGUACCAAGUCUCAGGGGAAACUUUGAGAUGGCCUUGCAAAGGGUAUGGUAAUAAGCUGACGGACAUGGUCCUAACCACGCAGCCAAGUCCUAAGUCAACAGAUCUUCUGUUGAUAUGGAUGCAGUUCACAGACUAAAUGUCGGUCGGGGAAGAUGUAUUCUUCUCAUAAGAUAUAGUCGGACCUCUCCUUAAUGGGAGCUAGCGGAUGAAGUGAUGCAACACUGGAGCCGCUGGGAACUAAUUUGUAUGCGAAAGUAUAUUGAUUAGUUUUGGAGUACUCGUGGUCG
particulars: 30 °C
test readout: self-splicing fitness (ln)

>>> recorded_measurement("AGGUAGCAAUAUUACGACGC")
-0.0643
>>> recorded_measurement("CCCAAGCAAUAUUACGUGGG")
-3.29
>>> recorded_measurement("UACCAGCAAUAUUACGGUCU")
-0.501
>>> recorded_measurement("UACAAGCAAUAUUACGUACC")
-2.83
>>> recorded_measurement("ACAUAGCAAUAUUACGAUUC")
-2.52
>>> recorded_measurement("AGAAAGCAAUAUUACGGGUU")
-2.85
>>> recorded_measurement("AGGCAGCAAUAUUACGAUCC")
-0.222
>>> recorded_measurement("GUCGAGCAAUAUUACGCUCU")
-1.61
>>> recorded_measurement("ACUGAGCAAUAUUACGGUCA")
-3.09
>>> recorded_measurement("AAAUAGCAAUAUUACGUUUA")
-1.85
>>> recorded_measurement("AUCUAGCAAUAUUACGGCCA")
-1.06
>>> recorded_measurement("GCUAAGCAAUAUUACGCAGA")
-2.53
>>> recorded_measurement("AUGCAGCAAUAUUACGCGGC")
-3.79
>>> recorded_measurement("CCCUAGCAAUAUUACGCUAU")
-3.92
>>> recorded_measurement("UGCGAGCAAUAUUACGAAAA")
-1.24
>>> recorded_measurement("UAAGAGCAAUAUUACGUCUC")
-4.3

---

Recorded measurements of self-splicing fitness (ln), one per entry
method description: self-splicing fitness, log relative to wild type (ln ratio); higher = more splicing; Tetrahymena group I intron in knt gene, E. coli kanamycin selection, DiMSum; sequences stand for … in CUCUCU…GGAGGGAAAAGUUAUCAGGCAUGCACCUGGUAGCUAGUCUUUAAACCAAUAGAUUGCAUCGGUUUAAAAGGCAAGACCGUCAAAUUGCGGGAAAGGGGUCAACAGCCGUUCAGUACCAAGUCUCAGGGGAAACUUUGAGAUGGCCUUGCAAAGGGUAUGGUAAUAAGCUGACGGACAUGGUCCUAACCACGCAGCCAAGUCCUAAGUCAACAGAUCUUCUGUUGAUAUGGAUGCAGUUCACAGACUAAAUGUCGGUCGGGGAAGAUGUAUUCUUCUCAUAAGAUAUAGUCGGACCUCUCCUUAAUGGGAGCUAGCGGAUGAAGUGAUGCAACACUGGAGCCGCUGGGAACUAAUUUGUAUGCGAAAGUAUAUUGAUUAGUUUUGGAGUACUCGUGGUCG
particulars: 30 °C
test readout: self-splicing fitness (ln)

>>> recorded_measurement("UUUUAGCAAUAUUACGGCAU")
-2.8
>>> recorded_measurement("UGGCAGCAAUAUUACGUGCA")
-0.0165
>>> recorded_measurement("GUUCAGCAAUAUUACGCGCA")
-1.04
>>> recorded_measurement("GCUGAGCAAUAUUACGCACA")
-3.2
>>> recorded_measurement("AUGAAGCAAUAUUACGAGUG")
-1.22
>>> recorded_measurement("GGCCAGCAAUAUUACGACGC")
-1.02
>>> recorded_measurement("UAGUAGCAAUAUUACGGUGA")
-2.29
>>> recorded_measurement("UUGCAGCAAUAUUACGAUAG")
-0.692

---

method description: self-splicing fitness, log relative to wild type (ln ratio); higher = more splicing; Tetrahymena group I intron in knt gene, E. coli kanamycin selection, DiMSum; sequences stand for … in CUCUCU…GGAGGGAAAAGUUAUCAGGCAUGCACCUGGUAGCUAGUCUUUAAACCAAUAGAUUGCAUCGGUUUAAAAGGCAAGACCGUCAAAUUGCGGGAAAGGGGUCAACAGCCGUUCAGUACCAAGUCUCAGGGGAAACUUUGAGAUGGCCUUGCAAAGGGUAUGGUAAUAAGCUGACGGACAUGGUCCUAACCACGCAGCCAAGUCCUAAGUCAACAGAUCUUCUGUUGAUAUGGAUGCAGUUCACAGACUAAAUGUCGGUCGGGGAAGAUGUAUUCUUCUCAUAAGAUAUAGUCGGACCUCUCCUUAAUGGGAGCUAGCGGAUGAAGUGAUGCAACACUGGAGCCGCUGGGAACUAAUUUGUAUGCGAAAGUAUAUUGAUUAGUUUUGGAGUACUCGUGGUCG
particulars: 37 °C
Given measured self-splicing fitness (ln), output y if it is greater than or equal to -2 and n if not.

>>> class_assignment("AUGUAGCAAUAUUACGCUUA")
"y"
>>> class_assignment("UUCAAGCAAUAUUACGAUAA")
"y"
>>> class_assignment("AAAAAGCAAUAUUACGCCUG")
"y"
>>> class_assignment("GGUUAGCAAUAUUACGGUCU")
"y"
>>> class_assignment("GGAUAGCAAUAUUACGUACC")
"y"
>>> class_assignment("UAUAAGCAAUAUUACGCUGA")
"y"
>>> class_assignment("CGGCAGCAAUAUUACGCAUA")
"y"
>>> class_assignment("AUAGAGCAAUAUUACGCUGA")
"y"
>>> class_assignment("AGCGAGCAAUAUUACGGUGA")
"n"
>>> class_assignment("UAAGAGCAAUAUUACGUUUC")
"n"
>>> class_assignment("CACCAGCAAUAUUACGUGCA")
"n"
>>> class_assignment("AGGGAGCAAUAUUACGCCCA")
"y"
>>> class_assignment("CCGGAGCAAUAUUACGUAAG")
"y"
>>> class_assignment("CGAAAGCAAUAUUACGCAAG")
"y"
>>> class_assignment("CCCAAGCAAUAUUACGCAGU")
"n"
>>> class_assignment("GCAUAGCAAUAUUACGGCGA")
"y"
>>> class_assignment("AGUUAGCAAUAUUACGGUUU")
"y"
>>> class_assignment("ACUCAGCAAUAUUACGGUAG")
"n"
>>> class_assignment("ACAAAGCAAUAUUACGGCCA")
"y"
>>> class_assignment("GCUUAGCAAUAUUACGAUAA")
"y"
>>> class_assignment("CGAUAGCAAUAUUACGUAGU")
"y"
>>> class_assignment("ACGGAGCAAUAUUACGGCAA")
"n"
>>> class_assignment("AACGAGCAAUAUUACGAUAA")
"n"
>>> class_assignment("AAGAAGCAAUAUUACGUCCU")
"y"
>>> class_assignment("CUAGAGCAAUAUUACGGGAA")
"n"
>>> class_assignment("AGAUAGCAAUAUUACGGGGG")
"n"
>>> class_assignment("CUCAAGCAAUAUUACGGAUU")
"n"
>>> class_assignment("AUUCAGCAAUAUUACGCGAC")
"y"
>>> class_assignment("CUUUAGCAAUAUUACGCUUG")
"n"
>>> class_assignment("UGAGAGCAAUAUUACGAAUG")
"y"
>>> class_assignment("AUGCAGCAAUAUUACGGGAU")
"y"
>>> class_assignment("CGAUAGCAAUAUUACGCUAG")
"y"
>>> class_assignment("UCGAAGCAAUAUUACGGCAU")
"y"
>>> class_assignment("CCCCAGCAAUAUUACGGGGG")
"n"
>>> class_assignment("CAACAGCAAUAUUACGCAAC")
"n"
>>> class_assignment("CGAAAGCAAUAUUACGUAGU")
"n"
>>> class_assignment("UUAAAGCAAUAUUACGAAUA")
"y"
>>> class_assignment("UGAAAGCAAUAUUACGAAAC")
"y"
>>> class_assignment("GAAAAGCAAUAUUACGCCUU")
"y"
>>> class_assignment("CGCAAGCAAUAUUACGAGAG")
"n"
>>> class_assignment("UGGAAGCAAUAUUACGGUGC")
"n"
>>> class_assignment("GACUAGCAAUAUUACGGAUC")
"y"
>>> class_assignment("CCCGAGCAAUAUUACGUUCU")
"n"
>>> class_assignment("CAGAAGCAAUAUUACGAUCG")
"y"
>>> class_assignment("UACAAGCAAUAUUACGGUAG")
"y"
>>> class_assignment("AUAAAGCAAUAUUACGCCGA")
"y"
>>> class_assignment("UUGCAGCAAUAUUACGACUC")
"y"
>>> class_assignment("AAGAAGCAAUAUUACGCGUA")
"y"
>>> class_assignment("ACCCAGCAAUAUUACGAUCU")
"y"
>>> class_assignment("ACGUAGCAAUAUUACGACCA")
"y"
>>> class_assignment("UAGCAGCAAUAUUACGGCUG")
"n"
>>> class_assignment("GAUGAGCAAUAUUACGUACU")
"y"
>>> class_assignment("CACUAGCAAUAUUACGGGCC")
"n"
>>> class_assignment("UACGAGCAAUAUUACGCUUC")
"y"
>>> class_assignment("UUAGAGCAAUAUUACGCCUG")
"y"
>>> class_assignment("CUCCAGCAAUAUUACGGCUA")
"n"
>>> class_assignment("UCAGAGCAAUAUUACGUCUG")
"n"
>>> class_assignment("CCUGAGCAAUAUUACGCCAU")
"n"
>>> class_assignment("UGGAAGCAAUAUUACGGUAC")
"y"
>>> class_assignment("AGGAAGCAAUAUUACGAUUU")
"y"
>>> class_assignment("AACUAGCAAUAUUACGAAUU")
"y"
>>> class_assignment("UUCUAGCAAUAUUACGCCGU")
"y"
>>> class_assignment("UACCAGCAAUAUUACGUGGG")
"n"
>>> class_assignment("CUCUAGCAAUAUUACGCUUG")
"n"
>>> class_assignment("ACCAAGCAAUAUUACGAUCC")
"y"
>>> class_assignment("GUACAGCAAUAUUACGGCUA")
"y"
